system: vancomycin-resistant enterococci; experiment: broth micro-dilution, mean geometric MIC; format: cell-based, Enterococcus faecium and Enterococcus faecalis; conditions: enterococci, 24-hour incubation
Assignment: determine reported mean geometric MIC, Vancomycin Resistant Strains for the given compounds.

# input Any idea what its mean geometric MIC, Vancomycin Resistant Strains is? The compound is CNC(CC(C)C)C(=O)NC1C(=O)NC(CC(N)=O)C(=O)NC2C(=O)NC3C(=O)NC(C(=O)NC(C(=O)O)c4cc(O)cc(O)c4-c4cc3ccc4O)C(OC3CC(C)(N)C(O)C(C)O3)c3ccc(c(Cl)c3)Oc3cc2cc(c3OC2OC(CO)C(O)C(O)C2OC2CC(C)(NCc3ccc(N4CCC(C)CC4)cc3)C(O)C(C)O2)Oc2ccc(cc2Cl)C1O (stereo not drawn) [Compound 129]
# output 27 µg/mL

# input What do you have for CC(C)CC(C(=O)NC1C(=O)NC(CC(N)=O)C(=O)NC2C(=O)NC3C(=O)NC(C(=O)NC(C(=O)O)c4cc(O)cc(O)c4-c4cc3ccc4O)C(OC3CC(C)(N)C(O)C(C)O3)c3ccc(c(Cl)c3)Oc3cc2cc(c3OC2OC(CO)C(O)C(O)C2OC2CC(C)(NCc3cccnc3)C(O)C(C)O2)Oc2ccc(cc2Cl)C1O)N(C)Cc1cccnc1 (stereo not drawn) [Compound 280] ?
# output > 128 µg/mL

# input Also CCOC(c1ccccc1)c1ccc(CNC2(C)CC(OC3C(Oc4c5cc6cc4Oc4ccc(cc4Cl)C(OC4CC(C)(N)C(O)C(C)O4)C4NC(=O)C(NC(=O)C6NC(=O)C(CC(N)=O)NC(=O)C(NC(=O)C(CC(C)C)NC)C(O)c6ccc(c(Cl)c6)O5)c5ccc(O)c(c5)-c5c(O)cc(O)cc5C(C(=O)O)NC4=O)OC(CO)C(O)C3O)OC(C)C2O)cc1 (stereo not drawn) [Compound 126] ?
# output 2.4 µg/mL

###

Field: MIC. Provide a value for each of the compounds that follow.
Tested on: Staphylococcus aureus SA1199B
Type: cell-based
Experimental: The MIC's were determined using a standard broth micro-dilution assay.
Express your answer in mg/L, writing the number without its unit.

# input Give its MIC value. Item: CNC(CC(C)C)C(=O)NC1C(=O)NC(CC(N)=O)C(=O)NC2C(=O)NC3C(=O)NC(C(=O)NC(C(=O)O)c4cc(O)cc(O)c4-c4cc3ccc4O)C(OC3CC(C)(N)C(O)C(C)O3)c3ccc(c(Cl)c3)Oc3cc2cc(c3OC2OC(CO)C(O)C(O)C2OC2CC(C)(NCc3ccc(OCCCC#N)cc3)C(O)C(C)O2)Oc2ccc(cc2Cl)C1O (stereo not drawn)
# output 0.5

# input CNC(CC(C)C)C(=O)NC1C(=O)NC(CC(N)=O)C(=O)NC2C(=O)NC3C(=O)NC(C(=O)NC(C(=O)O)c4cc(O)cc(O)c4-c4cc3ccc4O)C(OC3CC(C)(N)C(O)C(C)O3)c3ccc(c(Cl)c3)Oc3cc2cc(c3OC2OC(CO)C(O)C(O)C2OC2CC(C)(NCc3ccc(-c4ccc(O)cc4)cc3)C(O)C(C)O2)Oc2ccc(cc2Cl)C1O (stereo not drawn) , same question.
# output 0.5

# input What about this compound? CNC(CC(C)C)C(=O)NC1C(=O)NC(CC(N)=O)C(=O)NC2C(=O)NC3C(=O)NC(C(=O)NC(C(=O)O)c4cc(O)cc(O)c4-c4cc3ccc4O)C(OC3CC(C)(N)C(O)C(C)O3)c3ccc(cc3)Oc3cc2cc(c3OC2OC(CO)C(O)C(O)C2OC2CC(C)(NCc3ccc(Oc4ccccc4)cc3)C(O)C(C)O2)Oc2ccc(cc2)C1O (stereo not drawn)
# output 1

# input Try this compound next: CNC(CC(C)C)C(=O)NC1C(=O)NC(CC(N)=O)C(=O)NC2C(=O)NC3C(=O)NC(C(=O)NC(C(=O)O)c4cc(O)cc(O)c4-c4cc3ccc4O)C(OC3CC(C)(N)C(O)C(C)O3)c3ccc(c(Cl)c3)Oc3cc2cc(c3OC2OC(CO)C(O)C(O)C2OC2CC(C)(NCc3ccc(-c4ccc(-c5ccccc5)cc4)cc3)C(O)C(C)O2)Oc2ccc(cc2Cl)C1O (stereo not drawn)
# output 4

# input Follow-up entry: CNC(CC(C)C)C(=O)NC1C(=O)NC(CC(N)=O)C(=O)NC2C(=O)NC3C(=O)NC(C(=O)NC(C(=O)O)c4cc(O)cc(O)c4-c4cc3ccc4O)C(OC3CC(C)(N)C(O)C(C)O3)c3ccc(c(Cl)c3)Oc3cc2cc(c3OC2OC(CO)C(O)C(O)C2OC2CC(C)(NCc3ccc(Oc4ccccc4Cl)c([N+](=O)[O-])c3)C(O)C(C)O2)Oc2ccc(cc2Cl)C1O (stereo not drawn)
# output 1

###

tested on: Staphylococcus aureus S13E; type: cell-based
reported_metric: MIC (µg/mL)
Record the value in µg/mL, omitting the unit from your answer.

# input For the compound shown here, CC#CCCCCCCCCCCNC1(C)CC(OC2C(Oc3c4cc5cc3Oc3ccc(cc3Cl)C(OC3CC(C)(N)C(O)C(C)O3)C3NC(=O)C(NC(=O)C5NC(=O)C(CC(N)=O)NC(=O)C(NC(=O)C(CC(C)C)NC)C(O)c5ccc(c(Cl)c5)O4)c4ccc(O)c(c4)-c4c(O)cc(O)cc4C(C(=O)O)NC3=O)OC(CO)C(O)C2O)OC(C)C1O (centres unmarked) , give the reported MIC.
# output 0.5

# input Similarly, CNC(CC(C)C)C(=O)NC1C(=O)NC(CC(N)=O)C(=O)NC2C(=O)NC3C(=O)NC(C(=O)NC(C(=O)O)c4cc(O)cc(O)c4-c4cc3ccc4O)C(OC3CC(C)(N)C(O)C(C)O3)c3ccc(c(Cl)c3)Oc3cc2cc(c3OC2OC(CO)C(O)C(O)C2OC2CC(C)(NCc3ccc(-c4ccc(C)cc4)c(C)c3)C(O)C(C)O2)Oc2ccc(cc2Cl)C1O (centres unmarked) ?
# output 1

###

tested on: vancomycin-resistant enterococci; experiment: broth micro-dilution, mean geometric MIC; assay type: cell-based, Enterococcus faecium and Enterococcus faecalis; conditions: enterococci, 24-hour incubation
reported_metric: mean geometric MIC, Vancomycin Resistant Strains (µg/mL)
Express the result in µg/mL but write the number alone.

# input Using the record for CNC(CC(C)C)C(=O)NC1C(=O)NC(CC(N)=O)C(=O)NC2C(=O)NC3C(=O)NC(C(=O)NC(C(=O)O)c4cc(O)cc(O)c4-c4cc3ccc4O)C(OC3CC(C)(N)C(O)C(C)O3)c3ccc(c(Cl)c3)Oc3cc2cc(c3OC2OC(CO)C(O)C(O)C2OC2CC(C)(NCC3=CCC4CC3C4(C)C)C(O)C(C)O2)Oc2ccc(cc2Cl)C1O (centres unmarked) [Compound 170] , report its mean geometric MIC, Vancomycin Resistant Strains.
# output 8.0

# input What do we get for CC(C)CC(C(=O)NC1C(=O)NC(CC(N)=O)C(=O)NC2C(=O)NC3C(=O)NC(C(=O)NC(C(=O)O)c4cc(O)cc(O)c4-c4cc3ccc4O)C(OC3CC(C)(N)C(O)C(C)O3)c3ccc(c(Cl)c3)Oc3cc2cc(c3OC2OC(CO)C(O)C(O)C2OC2CC(C)(NCc3cccc4c3OCO4)C(O)C(C)O2)Oc2ccc(cc2Cl)C1O)N(C)Cc1cccc2c1OCO2 (centres unmarked) [Compound 269] ?
# output 38

###

test system: Staphylococcus aureus 447; assay: broth micro-dilution MIC; type: cell-based
I'd appreciate it if you could supply MIC values for the items below.

# input Quick one: MIC for CNC(CC(C)C)C(=O)NC1C(=O)NC(CC(N)=O)C(=O)NC2C(=O)NC3C(=O)NC(C(=O)NC(C(=O)O)c4cc(O)cc(O)c4-c4cc3ccc4O)C(OC3CC(C)(N)C(O)C(C)O3)c3ccc(c(Cl)c3)Oc3cc2cc(c3OC2OC(CO)C(O)C(O)C2OC2CC(C)(NCc3ccc4ccccc4c3)C(O)C(C)O2)Oc2ccc(cc2Cl)C1O (stereo not drawn) ?
# output ≤ 0.06 µg/mL

# input Same for CNC(CC(C)C)C(=O)NC1C(=O)NC(CC(N)=O)C(=O)NC2C(=O)NC3C(=O)NC(C(=O)NC(C(=O)O)c4cc(O)cc(O)c4-c4cc3ccc4O)C(OC3CC(C)(N)C(O)C(C)O3)c3ccc(c(Cl)c3)Oc3cc2cc(c3OC2OC(CO)C(O)C(O)C2OC2CC(C)(NCc3ccc(-c4ccc(O)cc4)cc3)C(O)C(C)O2)Oc2ccc(cc2Cl)C1O (stereo not drawn)
# output 4 µg/mL

# input Again, but for CNC(CC(C)C)C(=O)NC1C(=O)NC(CC(N)=O)C(=O)NC2C(=O)NC3C(=O)NC(C(=O)NC(C(=O)O)c4cc(O)cc(O)c4-c4cc3ccc4O)C(OC3CC(C)(NCc4c5ccccc5c(C)c5ccccc45)C(O)C(C)O3)c3ccc(c(Cl)c3)Oc3cc2cc(c3OC2OC(CO)C(O)C(O)C2OC2CC(C)(NCc3c4ccccc4c(C)c4ccccc34)C(O)C(C)O2)Oc2ccc(cc2Cl)C1O (stereo not drawn)
# output 32 µg/mL

###

Kindly state MIC for each of the entries shown.
system: Staphylococcus aureus SA1199B; assay type: cell-based
I only need the number, in µg/mL, no unit after it.

# input So what's the measured MIC for this one? CNC(CC(C)C)C(=O)NC1C(=O)NC(CC(N)=O)C(=O)NC2C(=O)NC3C(=O)NC(C(=O)NC(C(=O)O)c4cc(O)cc(O)c4-c4cc3ccc4O)C(OC3CC(C)(N)C(O)C(C)O3)c3ccc(c(Cl)c3)Oc3cc2cc(c3OC2OC(CO)C(O)C(O)C2OC2CC(C)(NCc3ccc(Oc4ccc(Cl)c(Cl)c4)cc3)C(O)C(C)O2)Oc2ccc(cc2Cl)C1O (stereo not drawn)
# output 1

# input Query CNC(CC(C)C)C(=O)NC1C(=O)NC(CC(N)=O)C(=O)NC2C(=O)NC3C(=O)NC(C(=O)NC(C(=O)O)c4cc(O)cc(O)c4-c4cc3ccc4O)C(OC3CC(C)(N)C(O)C(C)O3)c3ccc(c(Cl)c3)Oc3cc2cc(c3OC2OC(CO)C(O)C(O)C2OC2CC(C)(NCCc3ccc(Oc4ccccc4)cc3)C(O)C(C)O2)Oc2ccc(cc2Cl)C1O (stereo not drawn) next
# output 0.5
